Target: human PD-L1 (human) (UniProt Q9NZQ7)
Sequence (Q9NZQ7 19-290): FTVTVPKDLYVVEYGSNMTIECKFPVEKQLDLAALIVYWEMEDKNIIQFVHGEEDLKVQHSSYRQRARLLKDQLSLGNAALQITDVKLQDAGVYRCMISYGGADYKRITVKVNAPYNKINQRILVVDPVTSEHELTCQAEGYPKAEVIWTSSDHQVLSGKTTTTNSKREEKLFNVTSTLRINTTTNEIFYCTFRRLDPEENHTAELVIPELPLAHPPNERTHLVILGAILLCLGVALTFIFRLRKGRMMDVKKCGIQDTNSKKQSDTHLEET
Test: flow cytometry, CHO cells expressing huPD-L1; MFI ratio to WT CD80 ECD-Fc (R&D)
# Yes = Fold change to WT below 6 fold (exclusive); No = Fold change to WT at/above 6 fold

binder	discrete.label
variant CD80 IgV-Fc A26E/Q33R/E35D/M47L/L85Q (Fc fusion) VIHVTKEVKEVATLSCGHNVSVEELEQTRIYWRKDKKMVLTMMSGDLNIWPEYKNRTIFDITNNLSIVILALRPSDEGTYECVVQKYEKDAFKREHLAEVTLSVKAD	No
variant CD80 IgV-Fc V22A/R29H/E35D/D46E/M47I (Fc fusion) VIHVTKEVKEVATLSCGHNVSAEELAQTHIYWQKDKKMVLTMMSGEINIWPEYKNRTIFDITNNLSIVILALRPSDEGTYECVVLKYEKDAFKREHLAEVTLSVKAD	Yes
variant CD80 IgV-Fc Q33L/E35D/T41S/M43I (Fc fusion) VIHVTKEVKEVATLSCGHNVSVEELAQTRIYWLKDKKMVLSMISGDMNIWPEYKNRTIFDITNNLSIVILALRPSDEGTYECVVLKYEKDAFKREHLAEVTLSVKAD	Yes

Is it true that Fold change to WT reported for variant CD80 IgV-Fc Q33L/E35D/M47I/L85Q (Fc fusion) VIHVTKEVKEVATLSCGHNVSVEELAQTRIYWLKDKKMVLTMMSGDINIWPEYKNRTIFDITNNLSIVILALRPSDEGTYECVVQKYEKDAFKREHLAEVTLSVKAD is less than 6 fold?
No

All values here come from patent US20220177587A1.
